Observed MIC for Escherichia coli (ATCC 25922), reported per entry below.
Experimental endpoint: MIC (mg/L)

Molecule: CC(C(=O)O)c1ccc(CSc2nc[nH]n2)cc1 (stereo not drawn)
MIC / mg/L: 12.5

(A) CC(C(=O)O)c1ccc(CSc2nc3cc([N+](=O)[O-])ccc3[nH]2)cc1 (stereo not drawn)
(B) CC(C(=O)O)c1ccc(CSc2nc3ccccc3s2)cc1 (stereo not drawn)
IN: Could you please tell me which of these two has the higher MIC: A or B ? Return value: the label identifying the chosen record.
OUT: B

---

Measured on: COX-1 (Ovis aries)
Construct: purchased Biovision K548-100
Sequence (P05979 25-600): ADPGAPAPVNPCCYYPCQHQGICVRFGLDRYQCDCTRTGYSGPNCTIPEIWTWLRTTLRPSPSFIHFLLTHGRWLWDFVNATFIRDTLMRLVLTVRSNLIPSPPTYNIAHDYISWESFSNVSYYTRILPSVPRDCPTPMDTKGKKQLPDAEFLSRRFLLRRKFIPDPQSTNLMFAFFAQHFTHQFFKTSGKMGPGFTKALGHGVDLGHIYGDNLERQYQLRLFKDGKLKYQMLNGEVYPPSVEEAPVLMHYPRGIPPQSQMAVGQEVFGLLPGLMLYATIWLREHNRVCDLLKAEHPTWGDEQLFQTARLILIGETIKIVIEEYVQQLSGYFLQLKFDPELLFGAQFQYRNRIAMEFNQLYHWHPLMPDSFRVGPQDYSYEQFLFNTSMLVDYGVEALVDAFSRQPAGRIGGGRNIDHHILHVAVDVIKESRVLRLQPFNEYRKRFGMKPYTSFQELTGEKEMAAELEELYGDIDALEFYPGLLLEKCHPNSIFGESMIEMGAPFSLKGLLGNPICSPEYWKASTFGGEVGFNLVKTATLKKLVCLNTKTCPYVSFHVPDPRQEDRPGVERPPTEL
Measurement protocol: fluorometric COX-1 inhibitor screening kit assay
Type: biochemical
Run conditions: IC50 (COX-1)/IC50 (COX-2)
Experimental endpoint: SI (selectivity index)

Compound: CC(C(=O)O)c1ccc(CSc2nc3ccccc3s2)cc1 (stereo not drawn) [Compound 6f]
SI (selectivity index): 0.54
--
Compound: CC(C(=O)O)c1ccc(CSc2nnnn2C)cc1 (stereo not drawn) [Compound 6e]
SI (selectivity index): 0.60
--
Compound: Cc1ccc(C(C)C(=O)O)cc1 (stereo not drawn) [Compound 4, 2-(4-methylphenyl) propionic acid]
SI (selectivity index): 0.59
--
Compound: COc1ccc2[nH]c(SCc3ccc(C(C)C(=O)O)cc3)nc2c1 (stereo not drawn) [Compound 6l]
SI (selectivity index): 0.60
--
Compound: CC(C(=O)O)c1ccc(CSc2nncn2C)cc1 (stereo not drawn) [Compound 6d]
SI (selectivity index): 0.62
--
Compound: Cc1ccc2[nH]c(SCc3ccc(C(C)C(=O)O)cc3)nc2c1 (stereo not drawn) [Compound 6j]
SI (selectivity index): 0.58
